In this section we review reported phenotypic distance values for a set of compounds.
Tested on: FT3469 (normal neural stem cell line)
assayExplanation: phenotypic distance (Euclidean, principal components) from DMSO controls (arbitrary units); higher = stronger morphological change
protocolConditions: 1000 nM; exposure time: 72 h
Enter the number alone.

Below, each entry is followed by its recorded phenotypic distance result.
Fill in: phenotypic distance of COc1cc([C@@H]2c3cc4c(cc3[C@@H](O[C@@H]3O[C@@H]5CO[C@@H](c6cccs6)O[C@H]5[C@H](O)[C@H]3O)[C@H]3COC(=O)[C@H]23)OCO4)cc(OC)c1O [Teniposide] is ___
1.78

Fill in: phenotypic distance of COc1cc2c(c(OC)c1OC)-c1ccc(OC)c(=O)cc1[C@@H](NC(C)=O)CC2 [Colchicine] is ___
5.12

Fill in: phenotypic distance of Clc1ccc(COC(Cn2ccnc2)c2ccc(Cl)cc2Cl)cc1 (configuration not stated) [Econazole nitrate] is ___
0.747

***
Fill in: phenotypic distance of CC1(C(=O)O)C2CCC(O2)C1(C)C(=O)O (configuration not stated) [Cantharidic Acid] is ___
0.653

Fill in: phenotypic distance of C/C=C(\C)C(=O)N[C@@H](c1ccccc1)[C@@H](O)C(=O)O[C@H]1C[C@@]2(O)[C@@H](OC(=O)c3ccccc3)[C@@H]3[C@]4(OC(C)=O)CO[C@@H]4C[C@H](O)[C@@]3(C)C(=O)[C@H](OC(C)=O)C(=C1C)C2(C)C [Cephalomannine] is ___
3.99

Fill in: phenotypic distance of CNc1ccc2oc(C[C@H]3O[C@@]4(CC[C@H]3C)O[C@H]([C@H](C)C(=O)c3ccc[nH]3)[C@H](C)C[C@H]4C)nc2c1C(=O)O [Calcimycin] is ___
6.31

Fill in: phenotypic distance of Clc1ccc(CSC(Cn2ccnc2)c2ccc(Cl)cc2Cl)cc1 (configuration not stated) [Sulconazole nitrate] is ___
0.92

====

Tested on: E34 (patient-derived glioblastoma stem cells of proneural subtype)
assayExplanation: surviving fraction (nuclei count normalised to DMSO); higher = more cells surviving (less toxic)
protocolConditions: 37.037 nM; exposure time: 72 h
Counter-ions that a name gives are not always drawn.
Everything with surviving fraction lower than 0.7 is no; everything else, including exactly 0.7, is yes.

Recorded results for 2 compounds are shown here.
For this compound, is measured surviving fraction 0.7 or higher? Cc1cc(C)c(CN2CCc3c(Cl)cc(-c4c(C)noc4C)c(Cl)c3C2=O)c(=O)[nH]1
yes

For this compound, is measured surviving fraction 0.7 or higher? Cc1ccc(NC(=O)c2ccc3c(c2)OCCO3)cc1NC(=O)c1ccc2nc(OCCN3CCCC3)ccc2c1
no

***
For this compound, is measured surviving fraction 0.7 or higher? CC(C)C[C@H](NC(=O)[C@H](Cc1ccccc1)C[C@@H](O)[C@H](Cc1ccccc1)NC(=O)OC(C)(C)C)C(=O)N[C@@H](Cc1ccccc1)C(N)=O [L-685,458]
yes

For this compound, is measured surviving fraction 0.7 or higher? Cc1[nH]nc(C(F)(F)F)c1Cc1sc2c(c1C(=O)N1C[C@](C)(O)CO1)c(=O)n(C)c(=O)n2C(C)C [AZD3965]
yes

For this compound, is measured surviving fraction 0.7 or higher? CCN(CC)CCCC(C)Nc1c2ccc(Cl)cc2nc2ccc(OC)cc12 (configuration not stated) [Quinacrine dihydrochloride hydrate]
yes

For this compound, is measured surviving fraction 0.7 or higher? COc1cc([C@@H]2c3cc4c(cc3[C@@H](O[C@@H]3O[C@@H]5CO[C@@H](C)O[C@H]5[C@H](O)[C@H]3O)[C@H]3COC(=O)[C@H]23)OCO4)cc(OC)c1O [Etoposide]
yes

====

Test system: FT3469
assayExplanation: surviving fraction (nuclei count normalised to DMSO); higher = more cells surviving (less toxic)
protocolConditions: 333.333 nM; exposure time: 72 h
Where a name gives a salt, the structure may show the parent alone.
property: surviving fraction
Enter the number alone.

Fill in: surviving fraction of C[C@@H](O)[C@H]1C(=O)N2C(C(=O)O)=C(S[C@@H]3CN[C@H](C(=O)N(C)C)C3)[C@H](C)[C@H]12 [Meropenem] is ___
1.28

Fill in: surviving fraction of COc1cc([C@@H]2c3cc4c(cc3[C@@H](O[C@@H]3O[C@@H]5CO[C@@H](C)O[C@H]5[C@H](O)[C@H]3O)[C@H]3COC(=O)[C@H]23)OCO4)cc(OC)c1O [Etoposide] is ___
0.662

Fill in: surviving fraction of Cc1ccc(NC(=O)c2ccc3c(c2)OCCO3)cc1NC(=O)c1ccc2nc(OCCN3CCCC3)ccc2c1 is ___
0.615

***
Fill in: surviving fraction of COc1cc2nc(N3CCN(C(=O)c4ccco4)CC3)nc(N)c2cc1OC [Prazosin hydrochloride] is ___
1.14

Fill in: surviving fraction of COC(=O)Nc1nc2cc(C(=O)c3cccs3)ccc2[nH]1 [Nocodazole] is ___
0.582

Fill in: surviving fraction of Nc1ncn([C@@H]2O[C@H](CO)[C@@H](O)[C@H]2O)c(=O)n1 [5-azacytidine] is ___
0.915

====

System: E13 (patient-derived glioblastoma stem cells of classical subtype)
assayExplanation: phenotypic distance (Euclidean, principal components) from DMSO controls (arbitrary units); higher = stronger morphological change
protocolConditions: 12.3 nM; exposure time: 72 h
Counter-ions that a name gives are not always drawn.
In this section we review reported phenotypic distance values for a set of compounds.

Below, each entry is followed by its recorded phenotypic distance result.
Fill in: phenotypic distance of CCCCCCCCCCCCCC(=O)O[C@@H]1[C@@H](C)[C@@]2(O)[C@@H](C=C(CO)C[C@]3(O)C(=O)C(C)=C[C@@H]23)[C@@H]2C(C)(C)[C@]12OC(C)=O [Phorbol 12-myristate 13-acetate] is ___
2.5

Fill in: phenotypic distance of COc1cc([C@@H]2c3cc4c(cc3[C@H](O)[C@H]3COC(=O)[C@H]23)OCO4)cc(OC)c1OC is ___
7.76

Fill in: phenotypic distance of N=C(N)c1ccc(-c2ccc(-c3ccc(C(=N)N)cc3)o2)cc1 [Furamidine dihydrochloride] is ___
0.642

Fill in: phenotypic distance of CC(C)NCC(O)c1ccc(O)c(O)c1 (centres undefined) [Isoproterenol hydrochloride] is ___
1.34

Fill in: phenotypic distance of CN[C@@H](C)C(=O)N[C@H](C(=O)N1CCC[C@H]1C(=O)N[C@H]1c2ccccc2C[C@H]1OCC#CC#CCO[C@@H]1Cc2ccccc2[C@@H]1NC(=O)[C@@H]1CCCN1C(=O)[C@@H](NC(=O)[C@H](C)NC)C1CCCCC1)C1CCCCC1 is ___
1.1

Fill in: phenotypic distance of CC[C@@H]1C(=O)N(C)c2cnc(Nc3ccc(C(=O)N[C@H]4CC[C@H](N5CCN(CC6CC6)CC5)CC4)cc3OC)nc2N1C(C)C is ___
4.86

Fill in: phenotypic distance of Cc1ccc2c(c1)C1(CCN(CCc3nc(-c4ccccc4)oc3C)CC1)OC(=O)N2 is ___
2.97

Fill in: phenotypic distance of CN(C)CCN(Cc1ccc(Cl)cc1)c1ccccn1 [Chloropyramine hydrochloride] is ___
0.447

Fill in: phenotypic distance of OC[C@H]1O[C@@H](Oc2ccc(O)cc2)[C@H](O)[C@@H](O)[C@@H]1O is ___
0.859

Fill in: phenotypic distance of O=C1CCc2cc(OCCCCc3nnnn3C3CCCCC3)ccc2N1 is ___
0.664

***
Fill in: phenotypic distance of COC(=O)Nc1nc2cc(C(=O)c3ccc(F)cc3)ccc2[nH]1 is ___
0.737

Fill in: phenotypic distance of CN1C(=O)[C@@]23C[C@]4([C@]56C[C@@]78SS[C@@](CO)(C(=O)N7[C@H]5Nc5ccccc56)N(C)C8=O)c5ccccc5N[C@@H]4N2C(=O)[C@]1(CO)SS3 is ___
3.18

Fill in: phenotypic distance of CCOC(=O)OC(C)OC(=O)[C@@H]1N2C(=O)[C@@H](NC(=O)[C@H](N)c3ccccc3)[C@H]2SC1(C)C (some centres undefined) [Bacampicillin hydrochloride] is ___
1.12

Fill in: phenotypic distance of CC[C@@]1(O)C(=O)OCc2c1cc1n(c2=O)Cc2cc3c(CN(C)C)c(O)ccc3nc2-1 is ___
5.52

====

System: E31 (patient-derived glioblastoma stem cells of proneural subtype)
assayExplanation: phenotypic distance (Euclidean, principal components) from DMSO controls (arbitrary units); higher = stronger morphological change
protocolConditions: 111.1 nM; exposure time: 72 h
Where a name gives a salt, the structure may show the parent alone.
In this section we review reported phenotypic distance values for a set of molecules.
Enter the number alone.

Fill in: phenotypic distance of CC(C)NCC(O)COc1cccc2ccccc12 (configuration not stated) [Propranolol hydrochloride] is ___
0.802

Fill in: phenotypic distance of NC(=O)c1cccc2cn(-c3ccc([C@@H]4CCCNC4)cc3)nc12 [Niraparib] is ___
0.995

Fill in: phenotypic distance of COc1ccc2c(c1)CC[C@@H]1[C@@H]2CC[C@]2(C)[C@@H](NCCCCCCN3C(=O)CCC3=O)CC[C@@H]12 is ___
0.735

Fill in: phenotypic distance of CCC[C@@H]1C[C@@H](C(=O)N[C@@H]([C@H]2O[C@H](SC)[C@H](O)[C@@H](O)[C@H]2O)[C@@H](C)O)N(C)C1 [Lincomycin hydrochloride] is ___
0.44

Fill in: phenotypic distance of CC1(C)S[C@@H]2[C@H](NC(=O)Cc3ccccc3)C(=O)N2[C@H]1C(=O)O [Benzylpenicillin sodium] is ___
0.839

Fill in: phenotypic distance of C=C[C@H]1CN2CC[C@H]1C[C@@H]2[C@@H](O)c1ccnc2ccc(OC)cc12 [Quinidine hydrochloride monohydrate] is ___
0.428

***
Fill in: phenotypic distance of COc1cc([C@@H]2c3cc4c(cc3[C@H](O)[C@H]3COC(=O)[C@H]23)OCO4)cc(OC)c1OC [Podophyllotoxin] is ___
13.3
